Numbers sourced from patent US8883833B2.

Measured pIC50 by item
target: human PDE4B isozyme (Homo sapiens); assay: IC50 for human PDE4B isozyme (Table 5); assay type: biochemical; settings: read-out: IC50 for human PDE4B isozyme, hPDE4B
Sequence (Q07343 whole entry): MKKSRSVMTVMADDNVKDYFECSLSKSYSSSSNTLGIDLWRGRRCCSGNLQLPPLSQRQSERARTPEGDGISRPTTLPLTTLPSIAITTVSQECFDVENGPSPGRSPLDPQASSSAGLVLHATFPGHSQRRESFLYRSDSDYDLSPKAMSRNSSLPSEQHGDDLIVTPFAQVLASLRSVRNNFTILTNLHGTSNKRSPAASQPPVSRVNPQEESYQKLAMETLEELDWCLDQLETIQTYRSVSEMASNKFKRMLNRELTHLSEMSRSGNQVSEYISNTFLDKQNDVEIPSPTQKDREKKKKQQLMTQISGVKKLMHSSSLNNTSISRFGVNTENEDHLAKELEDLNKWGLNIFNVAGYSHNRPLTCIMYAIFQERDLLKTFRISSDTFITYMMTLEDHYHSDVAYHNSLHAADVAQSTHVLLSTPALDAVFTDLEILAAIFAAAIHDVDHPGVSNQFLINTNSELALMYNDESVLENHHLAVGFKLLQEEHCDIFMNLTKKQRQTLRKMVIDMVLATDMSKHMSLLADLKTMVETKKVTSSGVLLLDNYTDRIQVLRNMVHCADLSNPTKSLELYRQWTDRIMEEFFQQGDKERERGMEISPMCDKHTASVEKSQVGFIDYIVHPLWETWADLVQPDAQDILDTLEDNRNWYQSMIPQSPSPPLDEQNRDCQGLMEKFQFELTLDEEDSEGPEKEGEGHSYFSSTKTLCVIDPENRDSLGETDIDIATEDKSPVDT
pIC50: −log10 of the molar value.

| compound | value |
| --- | --- |
| Nc1nc2c(-c3cccc([N+](=O)[O-])c3)cc(Cc3ccc(F)cc3)cc2s1 [BA-01] | > 5.30 |
| O=C1CN(Cc2cc3scnc3c(-c3cccc(Cl)c3)c2F)CCN1 [BA-71] | > 5.30 |
| CC(=O)N1CCN(Cc2cc3scnc3c(-c3cccc(Cl)c3)c2F)CC1 [BA-44] | 4.70 to 5.30 |
| NC(=O)Nc1ccc(Cc2cc3sc(N)nc3c(-c3cccc(Cl)c3)c2F)cc1 [BA-21] | > 5.30 |

Requested field: pIC50. Item: CN(C)CC(=O)Nc1ccc(Cc2cc3scnc3c(-c3cccc(Cl)c3)c2F)cn1 [BA-64]
> 5.30

====

target: UniProt Q08499; test: In-vitro assay for PDE4 enzymes, real-time enzyme-coupled spectrophotometric assay (Table 3); format: biochemical
assay.metric: IC50

Examples with answers:
| compound | IC50 |
| --- | --- |
| CS(=O)(=O)Nc1ccc(Cc2cc(-c3cccc(Cl)c3)c3nc(N)oc3c2)cc1 | < 1000 nM |
| Cn1nccc1C(O)c1cc(-c2ccc3c(c2)OCO3)c2nc(N)sc2c1 (centres unmarked) | 1000 to 10000 nM |
| Nc1ccc(Cc2cc3sc(N)nc3c(-c3cccc([N+](=O)[O-])c3)c2O)cc1 | < 1000 nM |
| Cn1nccc1Cc1cc(-c2ccc3c(c2)OCO3)c2nc(N)sc2c1 | < 1000 nM |

Please look at the following compound next.
Name the reported IC50 value associated with the compound NC(=O)Nc1ccc(Cc2cc3sc(N)nc3c(-c3cccc(Cl)c3)c2F)cc1
< 1000 nM

====

pIC50: −log10 of the molar value.
Entries below carry reported pIC50 on h4B1 (Homo sapiens, UniProt Q07343).
Sequence (Q07343 whole entry): as above

| compound | value |
| --- | --- |
| Nc1ccc(Cc2cc(-c3cccc(Cl)c3)c3nc(N)sc3c2)cc1 | > 6.00 |
| CC(=O)c1cccc(-c2cc(Cn3cccn3)cc3sc(N)nc23)c1 | 5.00 to 6.00 |
| CS(=O)(=O)Nc1ccc(Cc2cc(-c3cccc(Cl)c3)c3nc(N)oc3c2)cc1 | 5.00 to 6.00 |
| Nc1nc2c(-c3ccc4c(c3)OCO4)cc(Cn3cccn3)cc2s1 | 5.00 to 6.00 |
| Nc1nc2c(-c3cccc([N+](=O)[O-])c3)cc(Cn3ccnc3)cc2s1 | > 6.00 |

Returns the measured pIC50 for the input compound. Input: Nc1ccc(Cc2cc(-c3cccc(Cl)c3)c3nc(N)oc3c2)cc1
> 6.00

====

Reported pIC50 for target or system UniProtKB Q08499, by entry.
pIC50: −log10 of the molar value.

| sample.smiles | value |
| --- | --- |
| NC(=O)NC1CCN(Cc2cc3scnc3c(-c3cccc(Cl)c3)c2F)CC1 | > 5.30 |
| Fc1c(CN2CCNCC2)cc2scnc2c1-c1cccc(Cl)c1 | > 5.30 |
| Fc1c(Cc2ccc(N3CCCC3)nc2)cc2scnc2c1-c1cccc(Cl)c1 | > 5.30 |

Could you now look at the following compound, please?
I have this compound here, Fc1c(Cc2ccc(N3CCC3)nc2)cc2scnc2c1-c1cccc(Cl)c1 , and I need its recorded pIC50.
> 5.30
